Target: T1, orthogonal hCD122 receptor (hoRb), hCD122 with H133D and Y134F (human, UniProt P14784 27-550)
T1 sequence: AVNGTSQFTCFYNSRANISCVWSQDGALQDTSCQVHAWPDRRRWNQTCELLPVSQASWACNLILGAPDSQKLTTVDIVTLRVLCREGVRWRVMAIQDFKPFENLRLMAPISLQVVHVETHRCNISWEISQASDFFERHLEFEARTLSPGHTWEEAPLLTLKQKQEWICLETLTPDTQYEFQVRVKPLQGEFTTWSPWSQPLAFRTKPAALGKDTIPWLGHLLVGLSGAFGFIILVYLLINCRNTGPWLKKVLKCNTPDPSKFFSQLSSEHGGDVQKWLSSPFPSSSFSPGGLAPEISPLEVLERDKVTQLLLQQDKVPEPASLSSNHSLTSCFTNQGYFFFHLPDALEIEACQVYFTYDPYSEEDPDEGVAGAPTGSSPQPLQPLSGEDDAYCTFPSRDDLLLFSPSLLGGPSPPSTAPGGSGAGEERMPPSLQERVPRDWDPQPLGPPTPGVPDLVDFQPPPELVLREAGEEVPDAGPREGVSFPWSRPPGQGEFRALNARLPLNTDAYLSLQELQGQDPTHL
Test: cell-based or functional assay
quantity-measured: NKL Ortho Proliferation Signal 1:50

ΔT3, SQVLKA (ligand) APSSSTKKTQLQLSQLLVLLKAILNGINNYKNPKLTRMLTFKFYMPKKATELKHLQCLEEELKPLEEVLNLAQSKNFHLRPRDLISNINVIVLELKGSETTFMCEYADETATIVEFLNRWITFCQSIISTLT	32300
ΔH16, S_VLKA (ligand) APTSSSTKKTQLQLSLLVLLKAILNGINNYKNPKLTRMLTFKFYMPKKATELKHLQCLEEELKPLEEVLNLAQSKNFHLRPRDLISNINVIVLELKGSETTFMCEYADETATIVEFLNRWITFCQSIISTLT	9760
I86V, SQVLKA (ligand) APTSSSTKKTQLQLSQLLVLLKAILNGINNYKNPKLTRMLTFKFYMPKKATELKHLQCLEEELKPLEEVLNLAQSKNFHLRPRDLVSNINVIVLELKGSETTFMCEYADETATIVEFLNRWITFCQSIISTLT	18400
SQVLTA (ligand) APTSSSTKKTQLQLSQLLVLLTAILNGINNYKNPKLTRMLTFKFYMPKKATELKHLQCLEEELKPLEEVLNLAQSKNFHLRPRDLISNINVIVLELKGSETTFMCEYADETATIVEFLNRWITFCQSIISTLT	7650
Q126D, SQVLKA (ligand) APTSSSTKKTQLQLSQLLVLLKAILNGINNYKNPKLTRMLTFKFYMPKKATELKHLQCLEEELKPLEEVLNLAQSKNFHLRPRDLISNINVIVLELKGSETTFMCEYADETATIVEFLNRWITFCDSIISTLT	6380

P. R81Y, SQVLKA (ligand) APTSSSTKKTQLQLSQLLVLLKAILNGINNYKNPKLTRMLTFKFYMPKKATELKHLQCLEEELKPLEEVLNLAQSKNFHLYPRDLISNINVIVLELKGSETTFMCEYADETATIVEFLNRWITFCQSIISTLT
Q. SQVLKT (ligand) APTSSSTKKTQLQLSQLLVLLKTILNGINNYKNPKLTRMLTFKFYMPKKATELKHLQCLEEELKPLEEVLNLAQSKNFHLRPRDLISNINVIVLELKGSETTFMCEYADETATIVEFLNRWITFCQSIISTLT
Parameter metric = NKL Ortho Proliferation Signal 1:50. Return the lower-valued option from P and Q . The response must carry the label of the picked entry.
Q
(Q: 33400, P: 49500)
